Experiment: in vivo
Settings: female, Balb/c, mouse, in vivo, 10 mg/kg, female Balb/c mice, 10 mg/kg iv and po
outcome-measure: bioavailability

[in] Name the recorded bioavailability of the compound listed here: N#Cc1cnc(Nc2cc(NC[C@H]3CNCCO3)c(C(F)(F)F)cn2)cn1
[out] 100%

* * *

Target: UniProt:O14757
Sequence (O14757 whole entry): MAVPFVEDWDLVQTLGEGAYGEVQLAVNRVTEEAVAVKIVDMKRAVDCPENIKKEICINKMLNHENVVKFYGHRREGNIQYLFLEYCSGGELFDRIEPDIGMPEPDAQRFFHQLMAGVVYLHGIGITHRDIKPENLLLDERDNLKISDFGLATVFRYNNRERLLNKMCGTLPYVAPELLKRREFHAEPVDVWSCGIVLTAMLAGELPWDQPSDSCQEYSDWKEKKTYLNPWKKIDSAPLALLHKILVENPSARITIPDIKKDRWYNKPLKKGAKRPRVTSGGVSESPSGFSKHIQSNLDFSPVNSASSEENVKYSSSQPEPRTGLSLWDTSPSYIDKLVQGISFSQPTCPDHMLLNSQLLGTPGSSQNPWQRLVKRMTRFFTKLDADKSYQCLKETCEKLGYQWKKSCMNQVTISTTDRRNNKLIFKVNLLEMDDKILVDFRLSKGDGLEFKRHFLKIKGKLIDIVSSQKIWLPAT
Assay: CHK1 DELFIA assay as described in Collins et al., 2009a
The reader will find reported log10 IC50 values listed item by item below.
# values: log10(IC50), units nM

Example cases with answers are listed next.
COC(C)(C)C#Cc1cnc(Nc2cnc(C#N)cn2)cc1NC[C@@H]1CNCCO1: 0.70
COCCCc1cnc(Nc2cnc(C#N)cn2)cc1NC[C@H]1CNCCO1: 1.36
COCCOc1ccc(-c2cnc(Nc3cnc(C#N)cn3)cc2NC[C@@H]2CNCCO2)cc1: 1.00
COCc1ccc(-c2cnc(Nc3cnc(C#N)cn3)cc2NC[C@H]2CNCCO2)cc1: 1.00

[in] Name the recorded log10 IC50 of the molecule listed here: COCC#Cc1cnc(Nc2cnc(C#N)cn2)cc1NC[C@@H]1CNCCO1
[out] 0.00

[in] Name the recorded log10 IC50 of the molecule listed here: N#Cc1cnc(Nc2cc(NCC3CNCCO3)c(C(=O)Nc3ccccc3)cn2)cn1 (centres unmarked)
[out] 1.30

[in] Name the recorded log10 IC50 of the molecule listed here: COCc1ccc(-c2cnc(Nc3cnc(C#N)cn3)cc2NC[C@@H]2CNCCO2)cc1
[out] 1.11

[in] Name the recorded log10 IC50 of the molecule listed here: COCCOc1ccc(-c2cnc(Nc3cnc(C#N)cn3)cc2NC[C@H]2CNCCO2)cc1
[out] 1.18
